- system_name: T1, recombinant human IFN-γ protein (human, UniProt P01579 24-166, limits assumed)
- T1 sequence: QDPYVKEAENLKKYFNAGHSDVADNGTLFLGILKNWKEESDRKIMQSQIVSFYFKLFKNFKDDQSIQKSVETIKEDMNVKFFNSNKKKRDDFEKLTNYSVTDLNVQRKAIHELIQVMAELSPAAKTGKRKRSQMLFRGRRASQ
- procedure_details: cell-based or functional assay
measurement_kind: IC50, inhibition of IFN-γ induced HLA-DR expression on THP-1 cells (ng/mL)
Give the value, in units of ng/mL, as a plain number.

>  <binder>
antibody 2A6 (antibody, human IgG1, V domains shown, partial N-linked glycosylation at Asn-76 of the VH, Human antibody from a single B cell, cloned into human IgG1 lambda expression vectors and made in FreeStyle 293-F cells) VH: EVQLVESGGGLVKPGDSLTVSCVASGFTFSNYFIHWVRQAPGKGLEWVATISGRTKYMFYSDSLRGRFTVSRDNANNSVYLHMSSLRGEDTALYYCVRGYDHSDSNSAADLLHWGRGTLVTVSS VL: NFMLTQPLSVSGYPGKTIVISCVRSSGSVASHYVQWFQQRPGSAPAMVIYEDSHRPSGIPDRFSGSVDASSNSASLTISGLKTEDEADYFCQSYYGNNQVLFGGGTKLTVL

>  <recorded_value>
3.4

$$$$
>  <binder>
antibody 1E8 (antibody, human IgG1, V domains shown, Human IgG1 lambda) VH: EVQLLESGGGLVQPGGPLRLSCAASGFTFSIYSMNWVRQAPGKGLEWVSSISGSGDNTYYADSVKGRFTITRDSSKNTLYLQMNTLRAEDTAVYFCAKSGRNIISPGFDSWGQGTLVTVSS VL: QPVLTQPPSASASLGASVTLTCTLNSDYGDYKVDWYQQRPGKGPRFVMRVGTGGIVGSKGDGIPDRFSVLGSGLNRFLTIKNIQEEDESDYYCGADHGSANNFIWVFGGGTKLTVL

>  <recorded_value>
8.6

$$$$
>  <binder>
antibody 2F2 (antibody, human IgG1, V domains shown, Human IgG1 lambda) VH: EVQLVESGGGLVKPGESLRLACVASGFNFSDYYMTWIRQAPGKGLEWVSYISNSGSHTYYADAVKGRFTVSRDNAKNSLYLQMTSLRGEDTAIYFCARDPSIMRGTYYMDVWGKGTTVTVSS VL: QSVLTQPPSASGTPGQRVTISCSGSSSNIGTNPVSWYQQFPGMAPKLLIYFNNQRPSGVPERFSGSKSGTPASLAIGGLQSEDEANYYCASWDDTLNGLVFGGGTKLTVL

>  <recorded_value>
36.1

$$$$

Let's switch to this binder now.
# input Consider the binder antibody 2B6 (antibody, human IgG1, V domains shown, Human IgG1 lambda) VH: EVQLVESGGGLVKPGGSLRLSCAASGFPFSRYSMHWVRQAPGKGLEWVSSMTSRTNHKYYADSLKGRFLISRDNDRDSLYLEMNSLGVEDTAIYFCARGYDTSGSDSGVDFQYWGQGTLVTVSS VL: NFMLTQPHSVSESPGKTITISCTRGRGYIASYYVQWYQQRPGGVPKIVVFEDTQRPSGVPDRISGSIDTSTNSASLTISGLQTEDEADYYCQSYDDANHVIFGGGTKLTVL and give its measured IC50, inhibition of IFN-γ induced HLA-DR expression on THP-1 cells.
# output 3.5
